Each entry below carries its recorded inhibition at 125 µM.
test system: H5N1 influenza virus strain A/Egypt/M7217B/2013; experiment: microbe, parasite or virus in culture; assay type: cell-based, influenza A virus (subtype H5N1); conditions: MDCK, read-out: inhibition % (plaque reduction assay)
Report the value in % with no unit label.

// solved cases for inhibition at 125 µM follow
- N#CC(C#N)=C(NC(=O)c1ccccc1)SCc1ccccc1: 53.3
- CC(=O)N[C@H]1[C@H]([C@H](O)[C@H](O)CO)OC(C(=O)O)=C[C@@H]1N=C(N)N [zanamivir, reference compound]: 99.2
- CCOc1n[nH]c(-c2ccccc2)n1: 63.3
- N#Cc1c(NC(=O)c2ccccc2)n[nH]c1N: 66.7
- N#Cc1c(NC(=O)c2ccccc2)nn2c3c(cnc12)CCC3: 33.3
- N#Cc1c(N)nc2c(C#N)c(NC(=O)c3ccccc3)nn2c1-c1ccc(Cl)cc1 [10c]: 33.3
- N#Cc1nnc2c(C#N)c(NC(=O)c3ccccc3)nn2c1N: 33.3
- Cc1cc(O)n2nc(NC(=O)c3ccccc3)c(C#N)c2n1 [12b]: 16.7

Give its inhibition at 125 µM value. Item: CC(=O)OC[C@H]1O[C@@H](SC(NC(=O)c2ccccc2)=C(C#N)C#N)[C@H](OC(C)=O)[C@H](OC(C)=O)[C@H]1OC(C)=O [21a]
63.3

Try this compound next: CCSC(NC(=O)c1ccccc1)=C(C#N)C#N
63.3

Source of measurements: paper PMC7542596
